# tested.target: SB-204269 binding site
# procedure.details: Inhibition of [3H]-SB 204269 binding to rat forebrain membranes.
# Type: cell membranes, Membrane
Criterion: Log Ki strictly less than -6. Met: Criterion met. Not met: Criterion not met.

{"compound": "CC1(C)Oc2ccc(F)cc2C(NC(=O)c2ccc(F)cc2)C1O (centres undefined)", "discrete.label": "Criterion not met"}
{"compound": "CC(=O)c1ccc2c(c1)[C@H](NC(=O)c1ccc(F)cc1)[C@@H](O)C(C)(C)O2 [CARABERSAT]", "discrete.label": "Criterion met"}
{"compound": "CC(=O)c1cccc2c1C(NC(=O)c1ccc(F)cc1)C(O)C(C)(C)O2 (centres undefined)", "discrete.label": "Criterion not met"}
{"compound": "CC(=O)c1ccc2c(c1)OC(C)(C)C(O)C2NC(=O)c1ccc(F)cc1 (centres undefined)", "discrete.label": "Criterion not met"}
{"compound": "CC(=O)c1ccc2c(c1)[C@H](NC(=O)c1cccc(Cl)c1)[C@@H](O)C(C)(C)O2", "discrete.label": "Criterion met"}
{"compound": "CC1(C)Oc2ccc([N+](=O)[O-])cc2C(NC(=O)c2ccc(F)cc2)C1O (centres undefined)", "discrete.label": "Criterion met"}
{"compound": "CC1(C)Oc2ccc(C(F)(F)C(F)(F)F)cc2[C@H](NC(=O)c2ccc(F)cc2)[C@H]1O", "discrete.label": "Criterion met"}
